target: GDP-bound KRAS protein (aa 1-169), containing both G12D and C118A amino acid substitutions (Homo sapiens (Human), UniProt P01116, C118A/G12D); experiment: KRAS G12D Coupled Nucleotide Exchange Assay; assay type: biochemical; conditions: read-out: KRAS G12D Coupled Exchange IC50
Sequence (P01116 other isoform, or with tags, fused parts or gaps G12D/C118A): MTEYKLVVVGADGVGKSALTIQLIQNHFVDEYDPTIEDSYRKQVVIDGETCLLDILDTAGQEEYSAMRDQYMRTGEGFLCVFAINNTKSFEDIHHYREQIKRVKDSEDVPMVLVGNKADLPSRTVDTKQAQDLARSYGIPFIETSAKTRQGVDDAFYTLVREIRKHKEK
observed_property: pIC50
Answers are plain numbers, as −log10 of the molar value.

Please review the following examples before continuing.
>>> reported_measurement("Cc1cc2[nH]ncc2c2c1CCCCC(=O)N(C)[C@@H]1CCCN(C1)c1nc(OC[C@@]34CCCN3C[C@H](F)C4)nc3c(F)c-2ncc13")
8.40
>>> reported_measurement("O=C1N[C@@H]2CCCCN(C2)c2nc(OC[C@@]34CCCN3C[C@H](F)C4)nc3c(F)c(ncc23)-c2c3c(cc4[nH]ncc24)CC[C@@H]3CCO1")
6.08
>>> reported_measurement("C[C@@]12CCCN(C1)c1nc(OC[C@@]34CCCN3C[C@H](F)C4)nc3c(F)c(ncc13)-c1cccc3c1N(CCCC(=O)N2)CCC3 [Example 13, bis(2,2,2-trifluoroacetate)]")
6.47

Hey, quick one: what's pIC50 for each of these?
1. Cc1cc2[nH]ncc2c2c1CCCn1ncc(n1)C1CCCN(C1)c1nc(OC[C@@]34CCCN3C[C@H](F)C4)nc3c(F)c-2ncc13 (stereo partly drawn)
2. Fc1c2ncc3c(nc(OC[C@@]45CCCN4C[C@H](F)C5)nc13)N1CCC[C@@H](COCCCCc3c(Cl)cc4[nH]ncc4c3-2)C1
3. Cc1cc2[nH]ncc2c2c1CCCOCC(=O)N1CC[C@@H]3CCN(C[C@@H]31)c1nc(OC[C@@]34CCCN3C[C@H](F)C4)nc3c(F)c-2ncc13

1: 8.22; 2: 8.70; 3: 8.70

###

molecular target: GDP-bound KRAS protein (aa 1-169), containing both G12D and C118A amino acid substitutions (Homo sapiens (Human), UniProt P01116, C118A/G12D); test: KRAS G12D Coupled Nucleotide Exchange Assay; assay type: biochemical; conditions: 2 hours compound pre-incubation; read-out: KRAS G12D Coupled Exchange
observed_property: IC50 (nM)
Answers are plain numbers, in nM.

Please review the following examples before continuing.
>>> reported_measurement("Fc1c2ncc3c(nc(OC[C@@]45CCCN4C[C@H](F)C5)nc13)N1CCO[C@@H](Cc3ncc(o3)CCc3c(Cl)cc4[nH]ncc4c3-2)C1")
4
>>> reported_measurement("Fc1c2ncc3c(nc(OC[C@@]45CCCN4C[C@H](F)C5)nc13)N1CCCC[C@@](F)(COCCCCc3c(Cl)cc4[nH]ncc4c3-2)C1")
2
>>> reported_measurement("CN(C)CC1(COc2nc3c4cnc(c(F)c4n2)-c2c(c(Cl)cc4[nH]ncc24)CCCCO[C@H]2C[C@]4(CCCN3C4)C2)CC1")
4
>>> reported_measurement("O[C@H]1C[C@@H]2CN(C1)c1nc(OC[C@@]34CCCN3C[C@H](F)C4)nc3c(F)c(ncc13)-c1c(c(Cl)cc3[nH]ncc13)CCCc1nc2no1 (mixture of isomers) [Example 377]")
2
>>> reported_measurement("O[C@]12CCOCCc3c(Cl)cc4[nH]ncc4c3-c3ncc4c(nc(OC[C@@]56CCCN5C[C@H](F)C6)nc4c3F)N3CCC[C@@](C3)(C1)C2")
2

# next molecule below
Give its IC50 value. Item: "Fc1c2ncc3c(nc(OC[C@@]45CCCN4C[C@H](F)C5)nc13)N1CCCC[C@](F)(COCCCCc3c(Cl)cc4[nH]ncc4c3-2)C1"
2

Every entry's value here was drawn from patent US20240294551A1.
